All figures here come from paper PMC11410521.

assay: Kinetics of THC metabolite formation in pooled human liver microsomes; assay type: in vitro ADME; settings: human, pooled human liver microsomes, Km,unbound of M3 formation, pooled HLMs 0.1 mg/mL; free THC concentrations
quantity: Km at 2 min

INSERT INTO assay_data (compound, quantity, observedmeasurement) VALUES
  ('CCCCCc1cc(O)c2c(c1)OC(C)(C)[C@@H]1CCC(C)=C[C@@H]21 [THC, Δ9-tetrahydrocannabinol]', 'Km at 2 min', '> 0.045 µM');

---

tested on: CYP2C19; experiment: THC incubations with recombinant CYP2C19 in the presence and absence of FABP1; type: in vitro ADME, human; conditions: human, recombinant CYP2C19 (Supersomes), Km,u −FABP1, M3 formation, recombinant CYP2C19, absence of FABP1
quantity: Km at 2 min (nM)

INSERT INTO results (compound, quantity, observedmeasurement) VALUES
  ('CCCCCc1cc(O)c2c(c1)OC(C)(C)[C@@H]1CCC(C)=C[C@@H]21 [THC, Δ9-tetrahydrocannabinol]', 'Km at 2 min', 2.2);
